Tested on: NCI-H1975
Assay: relative viability (nuclei count vs DMSO), 5 days (fraction); higher = more cells survive
Conditions: first compound 0.6325 µM
measured.quantity: relative viability
Reply with the value as a number alone.

Problem: Can you look up the measured relative viability of COCC1(CO)C(=O)C2CCN1CC2 (stereo not drawn) [PRIMA-1MET] + Cc1nc(NC(=O)N2CCC[C@H]2C(N)=O)sc1-c1ccnc(C(C)(C)C(F)(F)F)c1 [Alpelisib] (partner 2 µM) for me?
Result: 0.603

Problem: Can you look up the measured relative viability of COCC1(CO)C(=O)C2CCN1CC2 (stereo not drawn) [PRIMA-1MET] + O=C(c1cc(Cc2n[nH]c(=O)c3ccccc23)ccc1F)N1CCN(C(=O)C2CC2)CC1 [Olaparib] (partner 8 µM) for me?
Result: 0.699

Problem: Can you look up the measured relative viability of COCC1(CO)C(=O)C2CCN1CC2 (stereo not drawn) [PRIMA-1MET] + C[C@]1(O)C[C@@H](c2nc(-c3ccc4ccc(-c5ccccc5)nc4c3)c3c(N)nccn32)C1 [Linsitinib] (partner 1 µM) for me?
Result: 0.838
